relative viability overview
# Tested on: SW684
# assay text: relative viability vs DMSO control (72 h) (fraction); higher = more viable cells
# reported conditions: 0.00457 µM
Form rule: numeric answer, no unit written next to it.

In the examples that follow, each entry is paired with its recorded relative viability.
structure	relative viability
NC(=O)c1cnc2[nH]ccc2c1N[C@@H]1[C@@H]2CC3C[C@H]1C[C@@](O)(C3)C2	1.12
C[C@H]1Oc2cc(cnc2N)-c2c(nn(C)c2C#N)CN(C)C(=O)c2ccc(F)cc21	1.17
C=CC(=O)Nc1cccc(Nc2nc(Nc3ccc(N4CCN(C(C)=O)CC4)cc3OC)ncc2C(F)(F)F)c1	1.17

Exercise: Provide the documented relative viability with SW684 as the system for `C[C@@H](Oc1cc(-c2cnn(C3CCNCC3)c2)cnc1N)c1c(Cl)ccc(F)c1Cl`
Solution: 1.23
